Tested On: M1 muscarinic receptor (Rattus norvegicus)
Method Summary: Displacement of 3H-PZ from cortical binding sites, Tris/Mn buffer, with and without GppNHp
Set-up: from tissue; host or cells: rat cerebral cortex homogenates
Experimental Parameters: -G (without GppNHp); read-out: KH
Recorded Ki values for a group of compounds are listed next.

>>> experimental_value("CC1=NC2(CCN(C)CC2)CO1")
"3700 nM"

# input Consider the compound shown here: CC1OC2(CS1)CN1CCC2CC1 (stereo not shown) [AF102B, reference compound] What is its recorded Ki?
# output 700 to 1000 nM

# input What would you report for CC1=NCC2(CCN(C)CC2)O1 ?
# output 110 nM

# input What would you report for CC1=NCC2(CN3CCC2CC3)O1 (racemic) ?
# output 9000 nM

* * *

Tested On: M2 muscarinic receptors (Rattus norvegicus, UniProt P10980)
Construct: displacing from rat brain homogenates, cerebellum or frontal cortex; from tissue; host or cells: rat cerebellum homogenates
Method Summary: Displacement of 3H-QNB from rat cerebellum, 50 mM phosphate buffer
Format: binding
Experimental Parameters: read-out: 3H-QNB-Binding KH2 (c); cerebellum, Table 5
Recorded Metric: pKi
Field pKi (float): negative decimal logarithm of the concentration in molar.

# input Consider the compound shown here: CC1=NCC2(CN3CCC2CC3)O1 (racemic) What is its recorded pKi?
# output 5.42

* * *

Tested On: M2 muscarinic receptors (Rattus norvegicus)
Construct: displacing from rat brain homogenates, cerebellum or frontal cortex; from tissue; host or cells: rat cerebellum homogenates
Sequence (P10980 1-466): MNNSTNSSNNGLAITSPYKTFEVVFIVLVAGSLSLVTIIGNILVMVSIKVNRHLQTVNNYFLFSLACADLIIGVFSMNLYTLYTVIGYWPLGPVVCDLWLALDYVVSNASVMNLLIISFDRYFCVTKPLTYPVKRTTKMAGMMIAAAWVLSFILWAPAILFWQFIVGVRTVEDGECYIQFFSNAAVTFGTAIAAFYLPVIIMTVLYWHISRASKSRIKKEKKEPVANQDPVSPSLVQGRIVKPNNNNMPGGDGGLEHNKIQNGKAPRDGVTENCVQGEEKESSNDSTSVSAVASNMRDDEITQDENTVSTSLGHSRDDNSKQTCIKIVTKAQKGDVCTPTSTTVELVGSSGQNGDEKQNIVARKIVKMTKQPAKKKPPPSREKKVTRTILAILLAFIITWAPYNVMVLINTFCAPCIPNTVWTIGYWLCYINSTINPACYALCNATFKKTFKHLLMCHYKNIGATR
Method Summary: Displacement of 3H-QNB from rat cerebellum, 50 mM phosphate buffer
Type: binding
Experimental Parameters: cerebellum, Table 4; read-out: 3H-QNB-Binding KH (c)
Recorded Ki values for a group of molecules are listed next.
Provide a numeric answer, followed by its unit.

Please review the following examples before continuing.
>>> experimental_value("C[N+](C)(C)CC#CCOC(=O)Nc1cccc(Cl)c1")
"24.4 µM"
>>> experimental_value("CC1=NCC2(CCN(C)CC2)O1")
"4.5 µM"

Then there is this molecule:
# input Consider the molecule shown here: c1ccc(C2=NCC3(CN4CCC3CC4)O2)cc1 (stereo not drawn) What is its recorded Ki?
# output 1.37 µM

* * *

Tested On: M1 muscarinic receptor (Rattus norvegicus, UniProt P08482)
Sequence (P08482 1-460): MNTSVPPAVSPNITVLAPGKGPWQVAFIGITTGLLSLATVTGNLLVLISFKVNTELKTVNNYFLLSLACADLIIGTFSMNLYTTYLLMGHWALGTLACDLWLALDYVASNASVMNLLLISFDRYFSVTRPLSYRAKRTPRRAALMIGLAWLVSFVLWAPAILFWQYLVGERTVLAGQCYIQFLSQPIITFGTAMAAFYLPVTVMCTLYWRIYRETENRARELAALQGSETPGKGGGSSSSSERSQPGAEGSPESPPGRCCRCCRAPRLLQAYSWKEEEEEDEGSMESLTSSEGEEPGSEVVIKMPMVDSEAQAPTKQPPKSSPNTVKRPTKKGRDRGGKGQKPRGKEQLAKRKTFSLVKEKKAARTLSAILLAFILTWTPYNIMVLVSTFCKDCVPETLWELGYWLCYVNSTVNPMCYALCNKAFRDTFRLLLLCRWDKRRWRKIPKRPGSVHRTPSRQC
Method Summary: Displacement of 3H-PZ from cortical binding sites, Tris/Mn buffer, with and without GppNHp
Parameters: from tissue; host or cells: rat cerebral cortex homogenates
Experimental Parameters: KL, -G
Recorded Metric: pKi
Field pKi (float): negative decimal logarithm of the concentration in molar.

# input Consider the compound shown here: C[N+](C)(C)CC#CCN1CCCC1=O [Oxotremorine-M, reference compound] What is its recorded pKi?
# output 5.17
